Test: qHTS Assay for Lipid Storage Modulators in Drosophila S3 Cells
Settings: BODIPY lipid droplet fluorescence, 18-24 h, cells fed with added oleic acid; series mostly up to 46.1 µM
Among all 320,000 compounds or so, about 2,100 (0.66%) were called active. Roughly 53% stayed inconclusive and do not appear here. The call rests on the fitted dose curve; in most records, active means well fitted inhibition curve with a large enough effect in the signal ratio, with a control signal flat (not every such curve was filed as active); inconclusive means small, poorly fitted or top-dose-only effect, or effect the other way, or a change in a side signal; inactive means flat fitted curve, though single readings scatter; the % refers to the signal ratio. Shown is part of a subset that was picked to be rich in actives.
Pick from active, inactive when you respond.

Here are 9 compounds together with their reported answers.
Identify the outcome logged in this assay for the compound shown: COc1ccc2c(c1)C(=O)N1[C@H]3c4cc(C)ccc4OC[C@@H]3[C@H](c3ccccc3)[C@]1(C)C(=O)N2
inactive

Identify the outcome logged in this assay for the compound shown: O=C(OCc1cc(Cl)ccc1OC(F)F)c1cccnc1
inactive

Identify the outcome logged in this assay for the compound shown: CSC1=NC2(CCCCC2)C2=C(CCCC2)N1
active

Identify the outcome logged in this assay for the compound shown: COc1cc(/C=C/C(=O)c2ccc(NS(=O)(=O)c3ccc(C)cc3)cc2)cc(OC)c1O
inactive

Identify the outcome logged in this assay for the compound shown: O=C(OCc1cc(Cl)ccc1OC(F)F)c1cc(S(=O)(=O)O)ccc1O
active

Identify the outcome logged in this assay for the compound shown: O=C(CSc1nnc([C@@H]2CCCN2)o1)c1ccc(Cl)cc1
inactive

Identify the outcome logged in this assay for the compound shown: CCOC(=O)[C@H]1[C@H]2COc3ccc(OC)cc3[C@@H]2N2C(=O)c3cc(F)c(F)cc3NC(=O)[C@@]12C
inactive

Identify the outcome logged in this assay for the compound shown: Cc1cc(C)nc(NC(=O)c2c(Cl)cccc2Cl)n1
inactive

Identify the outcome logged in this assay for the compound shown: CCOC(=O)[C@H]1[C@H]2COc3ccc(Cl)cc3[C@@H]2N2C(=O)c3ccccc3NC(=O)[C@@]12C
inactive

Here's the next entry for you.
Identify the outcome logged in this assay for the compound shown: S=C1NC2=C(CCCC2)C2(CCCCC2)N1
inactive

###

Experiment: qHTS Assay for Lipid Storage Modulators in Drosophila S3 Cells;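 on cell number change: cells counted by Cell Tracker Red CMTPX staining in the red channel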
Details: BODIPY lipid droplet fluorescence, 18-24 h, cells fed with added oleic acid; measured here: cell count max response
Screen size: about 320,000 compounds; about 2,100 (0.66%) were called active. Inconclusive results (about 53%) are left out. This excerpt belongs to a sample that is enriched for actives.
Known cell number change of a selection of molecules
Please give a number only; it is taken to be in %.

Record COc1cccc(C(=O)Nc2nnc(S(=O)(=O)N3CCCC3)s2)c1 . Reported cell number change: -14.5

Record O=S(=O)(NC1=NCCC1)c1ccc(F)cc1 . Reported cell number change: 8.19

Record Cc1ccc(C(=O)NCC(c2ccco2)N2CCCCC2)s1 (stereo unspecified) . Reported cell number change: 20.8

Record Cc1ccc(S(=O)(=O)NC2=NCCCCC2)cc1 . Reported cell number change: -2.65

Record O=C(NC(Cc1ccccc1)C(=O)O)C1CCCCC1 (stereo unspecified) . Reported cell number change: -3.98

Record Cc1cccc(C(=O)Nc2nnc(S(=O)(=O)N3CCOCC3)s2)c1 . Reported cell number change: -0.612

###

Assay: qHTS Assay for Lipid Storage Modulators in Drosophila S3 Cells;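 on cell number change: cells counted by Cell Tracker Red CMTPX staining in the red channel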
Details: BODIPY lipid droplet fluorescence, 18-24 h, cells fed with added oleic acid; measured here: cell count max response
Excerpt: NIH Molecular Libraries Probe Production Centers Network [MLPCN] NIH Chemical Genomics Center [NCGC] […] Triacsin C (Sigma-Aldrich T-4540), an inhibitor of long-chain fatty acyl CoA synthetase that blocks synthesis of triglycerides, was used as a positive control for lipid under-storage. […] Fluorescence was detected by excitation of the fluorophores with a 488-nm laser on an Acumen Explorer (TTP Lab Tech). […] Cells were detected using channel 3 (575-640 nm) with 5-um width and 100-um depth filters. […]
About 2,100 (0.66%) of roughly 320,000 compounds were called active. Inconclusive results (about 53%) are left out. For the sample, actives were picked, then their nearest neighbours and some compounds at random.
Known cell number change of a selection of compounds
Please give a number only; it is taken to be in %.

Consider the worked cases shown below.
Record CC(C)(C)c1cc(CN2CCC(O)CC2)cc(C(C)(C)C)c1O . Reported cell number change: 12.8

Record CN1CCN(NC(=O)c2cc(S(=O)(=O)Nc3ccc(Cl)cc3)ccc2Cl)CC1 . Reported cell number change: 18.2

Record CC1=NN(Cc2cc(C(C)(C)C)c(O)c(C(C)(C)C)c2)C(=O)C1 . Reported cell number change: -27.5

Further cases:
Record CC(C)(C)C(=O)COC(=O)c1ccc(O)cc1 . Reported cell number change: 15.5

Record CC1=NN(Cc2ccccc2)C(=O)C1 . Reported cell number change: 11.6

Record C=CCn1c(O)c(C=Nc2ccc(Cc3ccncc3)cc2)c(=O)[nH]c1=S . Reported cell number change: 1.96
